Tested on: CCRIS mutagenicity, Ames/micronucleus/aberration tests
Assay: CCRIS mutagenicity studies
Settings: Test System: AMES SALMONELLA TYPHIMURIUM; Strain/Indicator: TA1535; Metabolic Activation: RAT, LIVER, S-9, AROCLOR 1254 (10%); Method: STANDARD PLATE
Calls of active or inactive are those of the source. No rule for the calls is given here.
MEASUREMENT TYPE: mutagenic call

Example compounds with recorded mutagenic call:
COMPOUND: CCCCC(CC)COC(=O)c1ccc(N(C)C)c([N+](=O)[O-])c1 (stereo not given)
MEASUREMENT TYPE: mutagenic call
OBSERVED MEASUREMENT: inactive; negative
--
COMPOUND: C[C@]12C=CC(=O)C=C1CC[C@@H]1[C@@H]2C(=O)C[C@@]2(C)[C@H]1CC[C@]2(O)C(=O)CO
MEASUREMENT TYPE: mutagenic call
OBSERVED MEASUREMENT: inactive; negative
--
COMPOUND: C[CH2][Ge]([Cl])([CH2]C)[CH2]C
MEASUREMENT TYPE: mutagenic call
OBSERVED MEASUREMENT: inactive; negative
--
COMPOUND: CCN(CC)c1ccc(C(=C2C=CC(=[N+](CC)CC)C=C2)c2ccc(N(CC)CC)cc2)cc1
MEASUREMENT TYPE: mutagenic call
OBSERVED MEASUREMENT: inactive; negative

# ---- query compound ----
Lookup: Output mutagenic call of `Oc1ccccc1-c1ccccc1`
Found: inactive; negative
